Source listed as ChEMBL document CHEMBL4689842.

# System: U2OS
# ASSAY_PROTOCOL: Multiplex assay against U2OS
# Format: toxicity, cell-based
# ASSAY_CONDITIONS: human, 48 h, 1 µM, compound concentration 1 uM, replicate 1
PARAMETER_MEASURED: Population Hoechst High Intensity Objects (%)

COMPOUND: C[C@]12CC[C@@H]3c4ccc(O)cc4CC[C@H]3[C@@H]1CC[C@@H]2O
RESULT: 1
//
COMPOUND: CCc1ccc(OCc2ccccc2C(=O)Nc2ccc3nc(C)cc(N)c3c2)cc1.Cl
RESULT: 15
//
COMPOUND: CC(C)c1noc(N2CCC(COc3ccc(-c4ccc(S(C)(=O)=O)cc4)nc3)CC2)n1
RESULT: 9
//
COMPOUND: CC(C)OC(=O)N1CCC(Oc2ncnc3c2cnn3-c2ccc(S(C)(=O)=O)cc2F)CC1
RESULT: 4
//
COMPOUND: COc1cc(Nc2nccc(-c3cnn4nc(OC)ccc34)n2)cc(C(F)(F)F)c1
RESULT: 4
//
COMPOUND: Cc1ccc(C)c(Oc2ccncc2C(=O)N2CCN(C3CC3)c3ccccc32)c1
RESULT: 3
//
COMPOUND: CCc1nn(CCCN2CCN(c3cccc(Cl)c3)CC2)c(=O)n1CCOc1ccccc1.Cl [NEFAZODONE HYDROCHLORIDE]
RESULT: 5
//
COMPOUND: CC1=C(C(=O)Nc2cc3cn[nH]c3cc2F)C(c2ccc(C(F)(F)F)cc2)CC(=O)N1 (stereo not drawn)
RESULT: 2
//
COMPOUND: Cc1cccc(CN2CCN(C(c3ccccc3)c3ccc(Cl)cc3)CC2)c1.Cl.Cl (stereo not drawn)
RESULT: 3
//
COMPOUND: Cc1c[nH]c2nccc(Oc3c(F)cc(Nc4cc(Cl)nc(N)n4)cc3F)c12
RESULT: 2
//
COMPOUND: O=c1cc(N2CCOCC2)oc2c(-c3cccc4c3sc3ccccc34)cccc12
RESULT: 5
//
COMPOUND: CN1CCN(Cc2ccc(Nc3ncc(Cl)c(Nc4ccccc4S(=O)(=O)N(C)C)n3)cc2)CC1
RESULT: 8
//
COMPOUND: COc1ccccc1CN[C@H]1C2CCN(CC2)[C@H]1C(c1ccccc1)c1ccccc1
RESULT: 3
//
COMPOUND: CNC(=O)Nc1ccc(-c2nc(N3CC4CCC(C3)O4)c3cnn(C4CCC5(CC4)OCCO5)c3n2)cc1
RESULT: 18
//
COMPOUND: Cc1ccc2c(c1)c1c(n2CCc2ccc(C)nc2)CCN(C)C1 [LATREPIRDINE]
RESULT: 2
//
COMPOUND: Cl.O=C(O)c1cc(-c2ccc(C3CCNCC3)cc2)c2ccc(-c3ccc(C(F)(F)F)cc3)cc2c1
RESULT: 3
//
COMPOUND: O=C(c1cc2c(cc1F)OC(c1ccc(F)cc1)(c1ccc(Cl)cc1Cl)O2)N1CCOCC1 (stereo not drawn)
RESULT: 7
//
COMPOUND: CC(C)Oc1ccccc1C(=O)Nc1ccccc1C(=O)Nc1cccc(S(=O)(=O)C(F)(F)F)c1
RESULT: 3

----------
# System: U2OS
# ASSAY_PROTOCOL: Multiplex assay against U2OS
# Type: toxicity, cell-based
# ASSAY_CONDITIONS: human, 24 h, 1 µM, compound concentration 1 uM, replicate 1
Listed next: entries and their corresponding Population Mitotic Cells (%).
PARAMETER_MEASURED: Population Mitotic Cells (%)

MOLECULE: CNC(=O)Nc1ccc2c(c1)[C@@]1(CC2)OC(=O)N(CC(=O)N(Cc2ccc(F)cc2)[C@@H](C)C(F)(F)F)C1=O
RESULT: 66
--
MOLECULE: CC(C)OC(=O)N1CCC(Oc2ncnc3c2cnn3-c2ccc(S(C)(=O)=O)cc2F)CC1
RESULT: 42
--
MOLECULE: CCCSc1nc(N[C@@H]2C[C@H]2c2ccc(F)c(F)c2)c2nnn([C@@H]3C[C@H](OCCO)[C@@H](O)[C@H]3O)c2n1
RESULT: 90
--
MOLECULE: CC(C)CC(=O)Nc1[nH]nc2c1CN(C(=O)C1CCN(C)CC1)C2(C)C
RESULT: 77
--
MOLECULE: C=CC(=O)Nc1cccc(Sc2nc(Nc3ccc(N4CCN(C)CC4)cc3)ncc2Cl)c1
RESULT: 3
--
MOLECULE: COC(=O)C1=C(C)NC(C)=C(C(=O)OCCCN2CCC(c3ccccc3)(c3ccccc3)CC2)[C@H]1c1cccc([N+](=O)[O-])c1
RESULT: 23
--
MOLECULE: C=CC(=O)Nc1ccc2[nH]c(=O)n(C3CCN(Cc4ccc(-c5nc6cc[nH]c(=O)c6cc5-c5ccccc5)cc4)CC3)c2c1
RESULT: 63
--
MOLECULE: CC(C)NC(=O)N1CC[C@H](NC2=Nc3cc(F)ccc3N(CC(F)F)c3ccc(Cl)cc32)C1
RESULT: 46
